# TEST SYSTEM: human ACC2 (Homo sapiens)
# Construct: made in house; host or cells: SF-9 insect cells, recombinant baculovirus BAC-ACC2(Nd)
# Sequence (O00763 117-2458 limits assumed): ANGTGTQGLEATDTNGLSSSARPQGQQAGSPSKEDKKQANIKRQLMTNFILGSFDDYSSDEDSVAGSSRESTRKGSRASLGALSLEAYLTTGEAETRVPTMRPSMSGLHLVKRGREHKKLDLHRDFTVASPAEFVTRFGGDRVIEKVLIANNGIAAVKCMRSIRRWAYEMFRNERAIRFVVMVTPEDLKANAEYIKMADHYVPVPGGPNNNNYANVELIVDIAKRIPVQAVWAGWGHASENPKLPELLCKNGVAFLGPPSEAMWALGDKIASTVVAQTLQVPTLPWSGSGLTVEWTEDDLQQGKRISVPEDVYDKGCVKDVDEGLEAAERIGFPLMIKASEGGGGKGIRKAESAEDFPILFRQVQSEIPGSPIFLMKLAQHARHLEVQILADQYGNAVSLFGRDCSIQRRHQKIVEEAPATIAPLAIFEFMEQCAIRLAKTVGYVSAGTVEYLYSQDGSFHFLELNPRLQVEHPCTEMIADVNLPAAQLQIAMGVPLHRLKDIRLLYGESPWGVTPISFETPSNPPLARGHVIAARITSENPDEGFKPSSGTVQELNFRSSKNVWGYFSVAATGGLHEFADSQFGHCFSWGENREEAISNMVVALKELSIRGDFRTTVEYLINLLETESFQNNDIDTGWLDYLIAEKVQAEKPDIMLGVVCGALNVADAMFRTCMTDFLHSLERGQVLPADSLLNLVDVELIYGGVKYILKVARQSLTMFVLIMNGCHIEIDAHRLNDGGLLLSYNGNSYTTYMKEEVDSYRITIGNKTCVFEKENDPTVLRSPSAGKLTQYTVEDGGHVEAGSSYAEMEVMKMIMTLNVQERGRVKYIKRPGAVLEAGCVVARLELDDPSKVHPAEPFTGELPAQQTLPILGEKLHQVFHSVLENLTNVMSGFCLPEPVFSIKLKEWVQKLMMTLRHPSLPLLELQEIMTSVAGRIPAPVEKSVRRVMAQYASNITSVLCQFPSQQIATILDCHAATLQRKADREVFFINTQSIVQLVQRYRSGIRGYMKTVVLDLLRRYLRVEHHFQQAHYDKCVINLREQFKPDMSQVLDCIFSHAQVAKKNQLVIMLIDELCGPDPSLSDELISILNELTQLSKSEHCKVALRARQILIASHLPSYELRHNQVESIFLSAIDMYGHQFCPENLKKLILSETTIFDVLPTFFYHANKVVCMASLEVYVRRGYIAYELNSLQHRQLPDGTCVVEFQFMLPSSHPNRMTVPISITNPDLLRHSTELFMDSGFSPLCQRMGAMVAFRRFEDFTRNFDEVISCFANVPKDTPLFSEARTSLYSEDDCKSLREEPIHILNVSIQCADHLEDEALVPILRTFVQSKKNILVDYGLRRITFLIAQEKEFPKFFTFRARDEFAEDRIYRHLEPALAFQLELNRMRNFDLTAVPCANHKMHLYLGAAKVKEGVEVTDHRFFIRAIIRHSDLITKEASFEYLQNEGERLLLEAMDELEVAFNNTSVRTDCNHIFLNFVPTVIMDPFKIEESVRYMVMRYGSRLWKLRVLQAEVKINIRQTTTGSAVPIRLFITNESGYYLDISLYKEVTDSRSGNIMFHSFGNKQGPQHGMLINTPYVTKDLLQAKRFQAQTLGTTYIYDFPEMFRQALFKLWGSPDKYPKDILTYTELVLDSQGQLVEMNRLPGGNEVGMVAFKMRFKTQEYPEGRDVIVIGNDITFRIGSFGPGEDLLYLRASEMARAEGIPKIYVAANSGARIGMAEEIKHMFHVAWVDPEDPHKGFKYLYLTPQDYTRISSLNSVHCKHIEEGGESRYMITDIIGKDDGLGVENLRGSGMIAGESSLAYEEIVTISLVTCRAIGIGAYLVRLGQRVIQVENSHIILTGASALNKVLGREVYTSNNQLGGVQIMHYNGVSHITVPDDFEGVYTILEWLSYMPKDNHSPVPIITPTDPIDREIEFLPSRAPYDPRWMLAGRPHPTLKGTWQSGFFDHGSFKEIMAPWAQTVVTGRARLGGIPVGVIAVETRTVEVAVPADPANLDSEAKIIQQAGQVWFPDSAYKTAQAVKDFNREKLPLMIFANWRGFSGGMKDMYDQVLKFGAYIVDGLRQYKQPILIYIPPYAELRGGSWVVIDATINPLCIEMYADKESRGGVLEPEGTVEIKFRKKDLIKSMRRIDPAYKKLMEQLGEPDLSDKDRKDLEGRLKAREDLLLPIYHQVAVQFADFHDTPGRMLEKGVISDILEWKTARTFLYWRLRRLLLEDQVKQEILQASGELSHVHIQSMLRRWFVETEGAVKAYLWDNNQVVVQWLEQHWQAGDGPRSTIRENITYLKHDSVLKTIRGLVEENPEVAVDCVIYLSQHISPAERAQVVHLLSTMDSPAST
# ASSAY SUMMARY: ACC2 inhibitory activity (malachite green absorbance assay, recombinant ACC2(Nd))
# Assay type: biochemical
# CONDITION SUMMARY: Table 9; recombinant human ACC2(Nd), N terminal deletion; 30° C.; absorbance 620 nm; read-out: IC50 (ACC2 inhibitory activity)
Examples of compounds with documented pIC50 follow.
// scale note: pIC50 = -log10(conc_M); give the bare number

Solved entries (count: 5):
CCNC(=O)Nc1sc2ccccc2c1C(=O)N1CCC(N2CCCC3(CCN(CC)C3=O)C2)CC1 (racemic) [Example 321] :: 7.47
CCNC(=O)Nc1sc2ccccc2c1C(=O)N1CCC(N2CCCC3(CC(=O)NC3=O)C2)CC1 (stereo not drawn) [Example 311] :: 7.51
CCN1C(=O)CC2(CCCN(C3CCN(C(=O)c4c(NC(N)=O)sc5ccccc45)CC3)C2)C1=O (racemic) [Example 240] :: 7.64
CCN1CCC2(CCCN(C3CCN(C(=O)c4c(NC(=O)NC)sc5ccccc45)CC3)C2)C1=O (stereo not drawn) [Example 339] :: 7.35
CCNC(=O)Nc1sc2ccccc2c1C(=O)N1CCC(N2CCCC3(C2)N=C(C)N(CC)C3=O)CC1 (stereo not drawn) [Example 401] :: 7.82

Tell me the measured pIC50 of CC(C)N1C(=O)OC2(CCCN(C3CCN(C(=O)c4c(NC(N)=O)sc5ccccc45)CC3)C2)C1=O (stereo not drawn) [Example 335] , please. 7.51

Let us now turn to CC(=O)c1cccc(-c2cc(C(=O)N3CCC(N4CCCC5(C4)CC(C)(C)OC5=O)CC3)cc(-c3cccnc3)c2)c1 (stereo not drawn) [Example 133] 6.92
